Test system: Plasmodium falciparum
Assay: Antimalarial activity against chloroquine-resistant ring stage of Plasmodium falciparum W2 infected in human erythrocytes assessed as inhibition of parasitemia after 48 hrs by FACS analysis
Assay type: functional, organism-based
Details: W2, 48 h
A collection of compounds and their measured IC50

SMILES STRING | TESTED ON | IC50 / nM
Cc1ccc(N2C(=O)[C@@H](N(Cc3cn(-c4ccnc5cc(Cl)ccc45)nn3)Cc3cn(-c4ccnc5cc(Cl)ccc45)nn3)[C@H]2/C=C/c2ccccc2)cc1 | Plasmodium falciparum | 1500
O=C1[C@@H](N(Cc2cn(-c3ccnc4cc(Cl)ccc34)nn2)Cc2cn(-c3ccnc4cc(Cl)ccc34)nn2)[C@@H](/C=C/c2ccccc2)N1C1CCCCC1 | Plasmodium falciparum | 2800
O=C1[C@@H](NCc2cn(-c3ccnc4cc(Cl)ccc34)nn2)[C@@H](/C=C/c2ccccc2)N1Cc1ccccc1 | Plasmodium falciparum | 5900
O=C1[C@@H](N(Cc2cn(-c3ccnc4cc(Cl)ccc34)nn2)Cc2cn(-c3ccnc4cc(Cl)ccc34)nn2)[C@@H](/C=C/c2ccccc2)N1Cc1ccccc1 | Plasmodium falciparum | 2700
O=C1[C@@H](N(Cc2cn(-c3ccnc4cc(Cl)ccc34)nn2)Cc2cn(-c3ccnc4cc(Cl)ccc34)nn2)[C@@H](/C=C/c2ccccc2)N1c1ccc(F)cc1 | Plasmodium falciparum | 1100
O=C1[C@@H](N(Cc2cn(-c3ccnc4cc(Cl)ccc34)nn2)Cc2cn(-c3ccnc4cc(Cl)ccc34)nn2)[C@@H](/C=C/c2ccccc2)N1c1ccccc1 | Plasmodium falciparum | 2100

The measured values listed here are drawn from ChEMBL document CHEMBL1933034.
